target.of.assay: T1, Recombinant human OX40-His protein (human, UniProt P43489 29-214, limits assumed)
T1 construct: Recombinant antigen protein; also called recombinant human OX-40 protein; human OX-40 protein; not shown: His tag
T1 sequence (looked up): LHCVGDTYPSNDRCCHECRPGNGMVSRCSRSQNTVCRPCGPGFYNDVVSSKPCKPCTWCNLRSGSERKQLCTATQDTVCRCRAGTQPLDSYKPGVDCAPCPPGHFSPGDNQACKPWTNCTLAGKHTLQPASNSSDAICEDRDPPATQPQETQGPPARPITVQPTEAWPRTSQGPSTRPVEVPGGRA
test.summary: SPR (Biacore 8K), OX40-HIS coupled to chip, antibody as analyte, 1:1 binding model
Param label: returns Satisfied when kon < 300000 M⁻¹ s⁻¹, returns Not satisfied otherwise, including exact equality.

INPUT: Given the entry AH02915 humanized anti-human OX40 monoclonal antibody (recombinant human IgG1/kappa) (antibody, V domains shown) VH: QVQLVQSGAEVKKPGASVKVSCKASGYTFTDYSMHWVKQAPGQGLEWMGWISTETGEPTYADDFKGRVTITLDTSASTAYLEISSLRSEDTAVYYCARVRPWYLAVWGQGTLVTVSS VL: DIQMTQSPSSLSASVGDRVTITCRASQDISNYLNWYQQKPGKAPKLLIYYTSRLYSGVPSRFSGSGSGTDFTLTISSLQPEDIATYFCQQANTLPLTFGGGTKLEIK , would its reported kon be below 300000 M⁻¹ s⁻¹?
OUTPUT: Not satisfied

INPUT: Given the entry AH02919 humanized anti-human OX40 monoclonal antibody (recombinant human IgG1/kappa) (antibody, V domains shown) VH: QVQLVQSGAEVKKPGASVKVSCKASGYTFTDYSMHWVKQAPGQGLEWMGWISTETGEPTYADDFKGRVTITRDTSASTAYLEISSLRSEDTAVYFCARVRPWYLAVWGQGTLVTVSS VL: DIQMTQSPSSLSASVGDRVTITCRASQDISNYLNWYQQKPGKAVKLLIYYTSRLYSGVPSRFSGSGSGTDYTLTISSLQPEDIATYYCQQANTLPLTFGGGTKLEIK , would its reported kon be below 300000 M⁻¹ s⁻¹?
OUTPUT: Not satisfied

INPUT: Given the entry AH02921 humanized anti-human OX40 monoclonal antibody (recombinant human IgG1/kappa) (antibody, V domains shown) VH: QVQLVQSGPEVKKPGASVKVSCKASGYTFTDYSMHWVRQAPGQGLEWMGWISTETGEPTYADDFKGRFTITLDTSASTAYLEISSLRSEDTAVYFCARVRPWYLTVWGQGTLVTVSS VL: DIQMTQSPSSLSASVGDRVTITCRASQDISNYLNWYQQKPGKAPKLLIYYTSRLYSGVPSRFSGSGSGTDYTLTISSLQPEDIATYFCQQANTLPLTFGGGTKLEIK , would its reported kon be below 300000 M⁻¹ s⁻¹?
OUTPUT: Not satisfied

INPUT: Given the entry AH02923 humanized anti-human OX40 monoclonal antibody (recombinant human IgG1/kappa) (antibody, V domains shown) VH: QVQLVQSGAEVKKPGASVKVSCKASGYTFTDYSMHWVRQAPGQGLEWMGWISTETGEPTYADDFKGRFTFTLDTSASTAYLELSSLRSEDTAVYYCARVRPWYLAVWGQGTLVTVSS VL: DIQMTQSPSSLSASVGDRVTITCRASQDISNYLNWYQQKPGKAVKLLIYYTSRLYSGVPSRFSGSGSGTDYTFTISSLQPEDIATYYCQQANTLPLTFGGGTKLEIK , would its reported kon be below 300000 M⁻¹ s⁻¹?
OUTPUT: Satisfied

INPUT: Given the entry AH02916 humanized anti-human OX40 monoclonal antibody (recombinant human IgG1/kappa) (antibody, V domains shown) VH: QVQLVQSGAEVKKPGASVKVSCKASGYTFTDYSMHWVKQAPGQGLEWMGWISTETGEPTYADDFKGRVTITLDTSASTAYMELSSLRSEDTAVYYCARVRPWYLAVWGQGTLVTVSS VL: DIQMTQSPSSLSASVGDRVTITCRASQDISNYLNWYQQKPGKAVKLLIYYTSRLYSGVPSRFSGSGSGTDYTFTISSLQPEDIATYFCQQANTLPLTFGGGTKLEIK , would its reported kon be below 300000 M⁻¹ s⁻¹?
OUTPUT: Satisfied
